We begin with a simple list: items and their reported abundance fitness.
B1: Formin-binding protein 4, residues 200 to 261; numbered along this chain, Q8N3X1 (parent)
chain: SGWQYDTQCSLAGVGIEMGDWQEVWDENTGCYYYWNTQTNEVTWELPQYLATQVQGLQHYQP

- Variants of: B1
- experiment.summary: abundance fitness (aPCA) (normalised: wild type 0, dead -1); higher = more abundant; growth selection in yeast, the domain comes from the species named
- experimental.setup: Homo sapiens
Please give only the number in your answer, with no unit.

Reference set (3 entries):
L50G
-0.767
N40Q
-0.056
D20M
-0.29

// query Bench note: what abundance fitness did V24A show?
// result -0.409

// query Again, but for S1E
// result 0.066

// query Again, but for W44Y
// result 0.089

// query Again, but for E41H
// result -0.472

// query Again, but for Y60D
// result 0.19

Hello, the source for this data is the Human Domainome abundance scans (Beltran et al. 2025), in case you need it.
